- Tested on: K562
- TEST PROTOCOL: NCI tumour cell line growth inhibition, 48 h
Activity calls are given as the source filed them. No stated cut-off is given here; in the data, active = GI50 up to about 1.1 µM and inactive = higher.
Labels: active, inactive

* NC(=O)c1ccccc1NC(=O)C(=O)C(C(=O)c1ccc2ccccc2c1)C1OC(=O)c2ccccc21 (stereo not given) | inactive
* CC(=O)/N=C1/N(/C=C2\C(=O)Oc3ccccc3C2=O)C(=O)/C(=C/c2ccc(OC(C)=O)cc2)N1C | inactive
* CC(=O)OC1CCCn2c1nc1c2C(=O)C(C)=C(N2CC2)C1=O (stereo not given) | active
* CC(C)c1ccc2c(c1)CCC1C(C)(C)[C@@H](O)CC[C@]21C (stereo not given in full) | inactive
* CC(C)=CCC/C(=C/CC/C(C)=C/CCc1ccoc1)C(=O)O | inactive
* CCOC(=O)/C(C(=O)Nc1cccc(C(F)(F)F)c1)=C(/N)N1CCCC1 | inactive
* CC(=O)Oc1ccn2nc(C)c(Br)c2c1Br | inactive
* O=c1[nH]c(-c2ccccc2)nc2cc([N+](=O)[O-])c(/C(Cl)=C/c3ccccc3)cc12 | inactive
* O=C(CCCN1CCC2(CC1)C(=O)NC(=O)N2c1ccccc1)c1ccc(F)cc1 | inactive
* CCCN(CCCc1ccccc1)CCc1ccc2[nH]c(=S)[nH]c2c1 | inactive

---

- System: EKVX
- TEST PROTOCOL: NCI tumour cell line growth inhibition, 48 h
Active and inactive are the calls of the source. Rule as the data show it: active = GI50 up to about 1.1 µM and inactive = higher.
READOUT TYPE: GI50

- COC(=O)C12C3C4C1C1C2C3C41C(=O)NC(C)(C)CC(=O)O (stereo not given): > 100 µM (inactive)
- Cc1cc(Nc2ccc(S(=O)(=O)O)cc2)c2ccccc2n1: > 100 µM (inactive)
- COc1ccc(N[S+]([O-])c2ccc(-c3ccccc3)cc2)cc1 (stereo not given): > 100 µM (inactive)
- COC(=O)c1ccccc1NC(=O)C(=O)NNC(=O)c1ccncc1: > 100 µM (inactive)
- N#Cc1ccccc1NC(=O)/C(=N\NC(=O)c1ccncc1)C(c1cnc2ccc([N+](=O)[O-])cc2n1)[N+](=O)[O-] (stereo not given): 53.1 µM (inactive)

---

Each entry below lists one item and its recorded GI50 value.
- Test system: RPMI-8226
- TEST PROTOCOL: NCI tumour cell line growth inhibition, 48 h
Calls of active or inactive are those of the source. No stated cut-off is given here; in the data, active = GI50 up to about 1.1 µM and inactive = higher.
READOUT TYPE: GI50

* CCOC(=O)Cn1c(=O)n(C)c(=O)c2c1ncn2Cc1ccccc1 | > 100 µM (inactive)
* N#CC(C#N)=C1C(=O)NC(N)=C1C#N | > 100 µM (inactive)
* O=[N+]([O-])c1ccc2c(c1)OCCOCCOc1ccc([N+](=O)[O-])cc1OCCOCCO2 | > 100 µM (inactive)
* CN(C)c1ccc(/C=C2\N=C(c3ccccc3)N(c3ccc4c(c3)Sc3cc(N5C(=O)/C(=C/c6ccc(N(C)C)cc6)N=C5c5ccccc5)ccc3N4)C2=O)cc1 | 20.4 µM (inactive)
* CCN(CC)c1cc2c3c(c1)CCCN3CCC2 | > 10 µM (inactive)
* C[n+]1cccc2ccc3cccnc3c21 | 4.91 µM (inactive)
* CC(CO)[C@H]1OC(=O)C=C2[C@@]13O[C@@H]3[C@H]1OC(=O)[C@@]3(C)[C@H]4O[C@H]4C[C@@]2(C)[C@@H]13 (stereo not given in full) | 2.22 µM (inactive)
* CC(C)=CC(=O)Cc1nc2cc(C)c(C)cc2[nH]c1=O | > 100 µM (inactive)
* CNS(=O)(=O)c1ccccc1C(=N)c1ccccc1 | > 100 µM (inactive)
* C=C1c2nc3ccccc3n2C=C(c2ccccc2)N1c1ccc(Cl)cc1 | > 55.3 µM (inactive)
* NS(=O)(=O)c1nnc(/N=C(/CCC(=O)O)C(=O)O)s1 | > 100 µM (inactive)
* c1ccc([C@@H]2N[C@@]3(CO[Si](c4ccccc4)(c4ccccc4)c4ccccc4)CC[C@H]4CN[C@@H]2[C@H]43)cc1 | 2.76 µM (inactive)
* Cc1cc2c(cc1C)[n+]([O-])c(C(=O)/C=C/c1ccc(Cl)cc1)c(C)[n+]2[O-] | 23.4 µM (inactive)
* O=C(c1ccco1)N(Cc1ccco1)C(=S)Nc1ccccc1 | 3.1 µM (inactive)
* CCc1nc2ccc(NCCN(C)C)c3c(=O)c4ccccc4n1c23 | 0.752 µM (active)
* CC(C)(C)c1cc(CCC(=O)Nc2ccc(Cl)cc2)nc(S)n1 | > 100 µM (inactive)
* O=C(COc1ccc(Cl)cc1Cl)N/N=C/C=C/c1ccc([N+](=O)[O-])o1 | 2.26 µM (inactive)
* O=C1NC(=S)N/C1=C/c1c(-c2ccccc2)[nH]c2ccccc12 | 8.73 µM (inactive)
* O=C1CCC2(O)C3Cc4ccc(Oc5nnnn5-c5ccccc5)c5c4C2(CCN3CC2CC2)C1O5 (stereo not given) | 28.9 µM (inactive)
* COc1ccc(C2CCc3c(cnc4nc(N)nc(N)c34)C2)cc1 (stereo not given) | > 100 µM (inactive)
